# TARGET_OF_ASSAY: hNAMPT protein (Homo sapiens (Human), UniProt P43490)
# Sequence (P43490 whole entry): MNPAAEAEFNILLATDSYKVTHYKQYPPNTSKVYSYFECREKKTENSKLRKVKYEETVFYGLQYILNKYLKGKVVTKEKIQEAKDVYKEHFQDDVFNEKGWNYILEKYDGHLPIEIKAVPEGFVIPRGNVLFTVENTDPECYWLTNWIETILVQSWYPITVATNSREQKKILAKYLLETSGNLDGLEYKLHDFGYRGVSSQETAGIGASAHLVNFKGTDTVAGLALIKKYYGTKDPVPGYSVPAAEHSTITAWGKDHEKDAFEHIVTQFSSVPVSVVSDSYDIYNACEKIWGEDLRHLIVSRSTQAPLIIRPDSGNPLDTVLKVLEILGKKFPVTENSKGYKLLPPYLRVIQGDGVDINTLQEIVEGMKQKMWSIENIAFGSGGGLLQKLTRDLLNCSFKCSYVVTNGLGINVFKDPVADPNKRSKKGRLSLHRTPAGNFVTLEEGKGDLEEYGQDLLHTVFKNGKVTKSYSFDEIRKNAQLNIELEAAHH
# PROCEDURE_DETAILS: NAMPT enzyme assay (TR-FRET/HTRF, BodiPY ligand, anti 6His-Tb)
# Type: binding
# MEASUREMENT_CONDITIONS: NAMPT IC50 range class; read-out: IC50
RESULT_TYPE: IC50

*Q* Any idea what its IC50 is? The compound is Cc1ccc(CCCNC(=O)c2ccc3nc(N4CCOCC4)c(-c4ccc(F)cc4)nc3c2)cn1
*A* 500 to 1000 nM

*Q* Again, but for CCOc1cc(-c2nc3cc(C(=O)NCCCc4ncc[nH]4)ccc3nc2-c2ccc(F)cc2)ccc1F
*A* < 100 nM

*Q* Again, but for O=C(NCCCc1ncc[nH]1)c1ccc2nc(O[C@@H]3CCOC3)c(-c3ccc(F)cc3)nc2c1
*A* < 100 nM

*Q* Again, but for O=C(NCCCn1ccnc1)c1ccc2nc(N3CCn4ccnc4C3)c(-c3ccccc3)nc2c1
*A* 500 to 1000 nM

Others:
*Q* Any idea what its IC50 is? The compound is O=C(NCCCn1ccnc1)c1ccc2nc(-c3ccccc3)c(N3CCC(O)C3)nc2c1 (stereo not shown)
*A* 2000 to 10000 nM

*Q* Again, but for CC(C)(C)OC(=O)NCc1ccc(-c2nc3ccc(C(=O)NCCCn4ccnc4)cc3nc2-c2ccccc2)cc1
*A* 100 to 500 nM

*Q* Again, but for COc1cccc(-c2nc3ccc(C(=O)NCCCn4ccnc4)cc3nc2-c2cccc(OC)c2)c1
*A* < 100 nM

* * *

# TARGET_OF_ASSAY: hNAMPT protein (Homo sapiens (Human), UniProt P43490)
# PROCEDURE_DETAILS: NAMPT enzyme assay (TR-FRET/HTRF, BodiPY ligand, anti 6His-Tb)
# Format: binding
# MEASUREMENT_CONDITIONS: compound concentration 1 μM; read-out: Percent Inhibition
RESULT_TYPE: inhibition at 1 µM

*Q* Any idea what its inhibition at 1 µM is? The compound is CC(C)(C)OC(=O)NCc1cccc(-c2nc3ccc(C(=O)NCCCn4ccnc4)cc3nc2-c2ccccc2)c1
*A* 62%

*Q* Again, but for O=C(NCCc1ncc[nH]1)c1ccc2nc(N3CCC(N4CCOCC4)CC3)c(-c3ccccc3)nc2c1
*A* 81%

*Q* Again, but for CC(C)Oc1nc2ccc(C(=O)NCCCc3ncc[nH]3)cc2nc1-c1ccc(F)c(F)c1
*A* 91%

Here is the next item to consider.
*Q* Any idea what its inhibition at 1 µM is? The compound is N#Cc1cc(-c2nc3cc(C(=O)NCCCc4ncc[nH]4)ccc3nc2-c2ccc(F)cc2)ccc1F
*A* 81%

* * *

# pIC50 listing for each entry below
# TARGET_OF_ASSAY: hNAMPT protein (Homo sapiens (Human))
# PROCEDURE_DETAILS: NAMPT enzyme assay (TR-FRET/HTRF, BodiPY ligand, anti 6His-Tb)
# Format: binding
# MEASUREMENT_CONDITIONS: NAMPT inhibition, IC50 range class; read-out: IC50
pIC50: −log10 of the molar value.

As a guide, the following entries are already answered.
*Q* Any idea what its pIC50 is? The compound is O=C(NCCCc1ncc[nH]1)c1ccc2nc(OCc3ccccc3Cl)c(-c3ccc(F)cc3)nc2c1 [Compound I-454]
*A* > 7.00

*Q* Again, but for O=C(NCCCc1ncc[nH]1)c1ccc2nc(OCC3CCOCC3)c(-c3ccc(F)cc3)nc2c1 [Compound I-406]
*A* > 7.00

*Q* Again, but for O=C(NCCCc1ncc[nH]1)c1ccc2nc(Cc3ccc(Cl)cc3)c(-c3ccc(F)cc3)nc2c1 [Compound I-476]
*A* 6.30 to 7.00

*Q* Again, but for O=C(NCc1cn2cccnc2n1)c1ccc2nc(-c3ccc(F)cc3)c(-c3ccc(F)cc3)nc2c1 [Compound I-408]
*A* 6.30 to 7.00

*Q* Again, but for O=C(NCCCc1ncc[nH]1)c1ccc2nc(OCc3cccnc3)c(-c3ccc(F)cc3)nc2c1 [Compound I-409]
*A* > 7.00

Others:
*Q* Any idea what its pIC50 is? The compound is O=C(NCCCc1ncc[nH]1)c1ccc2nc(OCC3CCCC3)c(-c3ccc(F)cc3)nc2c1 [Compound I-500]
*A* > 7.00

*Q* Again, but for COc1ccc(F)c(-c2nc3cc(C(=O)NCCCc4ncc[nH]4)ccc3nc2OC(C)C)c1 [Compound I-492]
*A* > 7.00

* * *

# inhibition at 1 µM listing for each entry below
# TARGET_OF_ASSAY: UniProtKB P43490
# PROCEDURE_DETAILS: NAMPT enzyme assay (TR-FRET/HTRF, BodiPY ligand, anti 6His-Tb)
# Format: binding
# MEASUREMENT_CONDITIONS: compound concentration 1 μM; read-out: Percent Inhibition
Response body: numeric value in %, unit text excluded.

*Q* Any idea what its inhibition at 1 µM is? The compound is O=C(NCCCn1ccnc1)c1ccc2nc(-c3ccccc3)c(N3CCCCCC3)nc2c1 [Compound I-265]
*A* 17

*Q* Again, but for O=C(NCCCn1ccnc1)c1ccc2nc(-c3ccc(F)cc3)c(-c3ccc(F)cc3)nc2c1 [Compound I-19]
*A* 82

*Q* Again, but for O=C(NCCCn1ccnc1)c1ccc2nc(CN3CCOCC3)c(-c3ccccc3)nc2c1 [Compound I-88]
*A* 41

Others:
*Q* Any idea what its inhibition at 1 µM is? The compound is Cn1ccc(CCNC(=O)c2ccc3nc(-c4ccc(F)cc4)c(-c4ccc(F)cc4)nc3c2)n1 [Compound I-108]
*A* 44

* * *

# inhibition at 1 µM listing for each entry below
# TARGET_OF_ASSAY: hNAMPT protein (Homo sapiens (Human), UniProt P43490)
# PROCEDURE_DETAILS: NAMPT enzyme assay (TR-FRET/HTRF, BodiPY ligand, anti 6His-Tb)
# Type: binding
# MEASUREMENT_CONDITIONS: compound concentration 1 μM; read-out: Percent Inhibition
Response body: numeric value in %, unit text excluded.

As a guide, the following entries are already answered.
*Q* For the record CC(Oc1nc2ccc(C(=O)NCCCc3ncc[nH]3)cc2nc1-c1ccc(F)cc1)c1ccccc1 (stereo not drawn) , what value of inhibition at 1 µM is listed for hNAMPT protein (Homo sapiens (Human), UniProt P43490)?
*A* 91

*Q* Again, but for Cc1cc(-c2nc3cc(C(=O)NCCCc4ncc[nH]4)ccc3nc2-c2ccc(F)cc2)cnc1Cl
*A* 86

Others:
*Q* For the record O=C(NCCCn1ccnc1)c1ccc2nc(N3CCCCCC3)c(-c3ccccc3)nc2c1 , what value of inhibition at 1 µM is listed for hNAMPT protein (Homo sapiens (Human), UniProt P43490)?
*A* 91

* * *

# TARGET_OF_ASSAY: hNAMPT protein (Homo sapiens (Human), UniProt P43490)
# PROCEDURE_DETAILS: NAMPT enzyme assay (TR-FRET/HTRF, BodiPY ligand, anti 6His-Tb)
# Format: binding
# MEASUREMENT_CONDITIONS: NAMPT IC50 range class; read-out: IC50
pIC50: −log10 of the molar value.
RESULT_TYPE: pIC50

*Q* For the record N#Cc1ccccc1-c1nc2ccc(C(=O)NCCCn3ccnc3)cc2nc1-c1ccccc1 , what value of pIC50 is listed for hNAMPT protein (Homo sapiens (Human), UniProt P43490)?
*A* 6.00 to 6.30

*Q* Again, but for CNC1CC(Oc2nc3ccc(C(=O)NCCCc4ncc[nH]4)cc3nc2-c2ccc(F)cc2)C1 (stereo not shown)
*A* > 7.00

*Q* Again, but for Cn1cnc(CCNC(=O)c2ccc3nc(-c4ccc(F)cc4)c(-c4ccc(F)cc4)nc3c2)c1
*A* 5.70 to 6.00

Others:
*Q* For the record O=C(NCCCc1ncc[nH]1)c1ccc2nc(OCC3COC3)c(-c3ccc(F)cc3)nc2c1 , what value of pIC50 is listed for hNAMPT protein (Homo sapiens (Human), UniProt P43490)?
*A* > 7.00

*Q* Again, but for O=C(NCCCn1ccnc1)c1ccc2nc(-c3ccccc3)c(N3CCS(=O)(=O)CC3)nc2c1
*A* 5.00 to 5.70

*Q* Again, but for Cc1ccc(-c2nc3ccc(C(=O)NCCCn4ccnc4)cc3nc2-c2ccc(C)cc2)cc1
*A* 5.70 to 6.00

*Q* Again, but for O=C(NCCCn1ccnc1)c1ccc2nc(-c3ccccc3)c(-c3ccc4[nH]ccc4c3)nc2c1
*A* 6.00 to 6.30

*Q* Again, but for O=C(NCCCn1ccnc1)c1ccc2nc(N3CCOCC3)c(-c3ccccc3)nc2c1
*A* 6.30 to 7.00

* * *

# TARGET_OF_ASSAY: hNAMPT protein (Homo sapiens (Human), UniProt P43490)
# PROCEDURE_DETAILS: NAMPT enzyme assay (TR-FRET/HTRF, BodiPY ligand, anti 6His-Tb)
# Format: binding
# MEASUREMENT_CONDITIONS: NAMPT IC50 range class; read-out: IC50
RESULT_TYPE: IC50

As a guide, the following entries are already answered.
*Q* Any idea what its IC50 is? The compound is O=C(NCCCn1ccnc1)c1ccc2nc(-c3ccc(Cl)cc3)c(-c3ccccc3)nc2c1
*A* 100 to 500 nM

*Q* Again, but for C[C@@H]1CN(c2nc3ccc(C(=O)NCCCc4ncc[nH]4)cc3nc2-c2ccc(F)cc2)C[C@H](C)O1
*A* < 100 nM

Others:
*Q* Any idea what its IC50 is? The compound is O=C(NCCCc1ncc[nH]1)c1ccc2nc(OCC3CCC3)c(-c3ccc(F)cc3)nc2c1
*A* < 100 nM

*Q* Again, but for COc1cccc(-c2nc3cc(C(=O)NCCc4cccnc4)ccc3nc2N2CCCCC2)c1
*A* < 100 nM

Where do these numbers come from? They come from patent US10144742B2.
